- System: T-47D breast
- Assay Comment: NCI tumour cell line growth inhibition, 48 h; in the data active = GI50 below about 0.43 µM; inactive = the rest
Classes used: active, inactive

1. COc1cc(Nc2nc3cc(N)cc(N)c3nc2-c2ccccc2)cc(OC)c1OC
inactive
2. CCOC(=O)/C(=C/N1CCN(C(=O)c2ccco2)C1=S)C(=O)c1ccccc1
inactive
3. Cc1cc(O)c(=O)cc2c1C[C@H]1CC(C)(C)/C=C/C[C@]3(C)Oc4cc(=O)c(O)cc(C)c4C[C@H]3C[C@H](O)[C@@]1(C)O2
active
4. Cc1cccc(N(C)C(=O)[C@@H]2[C@H](O)CCN2c2nc(C)cc(C(F)(F)F)c2C#N)c1
inactive

* * *

- Test system: SNB-75 CNS
- Assay Comment: NCI tumour cell line growth inhibition, 48 h
Readout Label: GI50

1) Fc1cccc(COc2ccc(Nc3ncnc4sc(-c5cccs5)cc34)cc2Cl)c1
4.17 µM
2) CCC(C)[C@H]1O[C@]2(CC[C@@H]1C)C[C@@H]1C[C@@H](C/C=C(\C)[C@@H](OC3C[C@H](OC)C(O[C@H]4C[C@H](OC)[C@@H](O)[C@H](C)O4)[C@H](C)O3)[C@@H](C)/C=C/C=C3\CO[C@@H]4[C@H](O)C(C)=C[C@@H](C(=O)O1)[C@]34O)O2 (stereo partly specified)
2.69 µM
3) COc1cc(C2Cc3ncccc3-c3[nH]c(=O)c4cccnc4c32)cc(OC)c1OC (stereo unspecified)
0.255 µM
4) CC(=O)Nc1ccc2c(c1)C(c1ccccc1Cl)=Nc1c(n[nH]c1C)N2
0.732 µM
5) CCN1C(=S)N(c2ccccc2)C2NC(=S)N(/N=C/C=C/c3ccccc3OC)C21 (stereo unspecified)
0.211 µM
6) O=Nc1ccc(O)c(=O)cc1
3.77 µM
7) COC[C@@H](N=C1NC(=O)/C(=C/c2ccc3ncccc3c2)S1)c1ccccc1
4.83 µM
8) CCCCCCCCCCCCOC1C(CNC(=O)C2OC3OC(C)(C)OC3C2NC(=O)Nc2ccc(CC(=O)OC)cc2)OC2OC(C)(C)OC21 (stereo unspecified)
> 100 µM
9) CCOC(=O)c1ccc(NC(=O)Nc2nncs2)cc1
0.0832 µM
10) O=C(Nc1ccc2[nH]nc(-c3ccncc3)c2c1)[C@@H]1CCN(CC(=O)N2CCN(c3ccc(-c4ncccn4)cc3)CC2)C1
18.2 µM
11) CCN(CCCN(C)C)Cc1cc(I)cc(C)c1O
16.1 µM

* * *

- System: MCF7 breast
- Assay Comment: NCI tumour cell line growth inhibition, 48 h; in the data active = GI50 below about 0.43 µM; inactive = the rest
Classes used: true for active, false for inactive

1) Cc1cc(S(=O)(=O)Nc2nc3ccccc3o2)c(SCc2ccccc2)cc1Cl
false
2) COc1ccc(C2CC(c3cccc(Nc4ccnc5cc(Cl)ccc45)c3)=NN2C=O)cc1 (centres undefined)
true
3) COc1ccc2c(c1)/C(=C\c1c(-c3cc(OC)ccc3OC)nc3sc(C)cn13)C(=O)N2C
false
4) COc1ccc(/C=C/C(=O)c2cc(OC)c(OC)c(OC)c2)cc1OCC(=O)Nc1nc2ccc(OC(F)(F)F)cc2s1
false
5) O=Nc1ccc(O)c(=O)cc1
false
6) CC(C)(C)c1ccc(S(=O)(=O)Oc2ccc3c4c(c(=O)oc3c2)CCCCC4)cc1
false
7) C=C1CC[C@@H]2[C@](C)(COC(C)=O)[C@H](OC(C)=O)CC[C@@]2(C)[C@@H]1CC(Nc1ccc(S(=O)(=O)NC(C)=O)cc1)C1=CCOC1=O (some centres undefined)
false
8) CCN(Cc1ccc(C)cc1)c1ccc(CO)c(Cl)c1
true
9) O=C(CC(Cl)=C(Cl)Cl)Nc1ccccc1
false
10) CCN(CC)c1ccc(/C=N/NC(=O)CSc2nc3ccccc3c(=O)n2CCc2ccc(S(N)(=O)=O)cc2)c(O)c1
false
11) CCCCCCCCCCCCOC1C(CNC(=O)C2OC3OC(C)(C)OC3C2NC(=O)Nc2ccc(CC(=O)OC)cc2)OC2OC(C)(C)OC21 (centres undefined)
false
12) Cc1cccc(N(C)C(=O)[C@@H]2[C@H](O)CCN2c2nc(C)cc(C(F)(F)F)c2C#N)c1
false
13) CC(=O)c1ccc2c(c1)c1cc(C(C)=O)ccc1n2CCNC(C)C
true
14) O=c1c2c(=NCCN3CCCC3)cc3c(=O)n(CCCN4CCOCC4)c(=O)c4c(-c5ccc(CN6CCCC6)cc5)cc(c(O)n1CCCN1CCOCC1)c2c4-3
true
